- ASSAYED_SYSTEM: T1, human CAPRIN-1 expressed on the surface of human cancer cells (human, UniProt Q14444 2-709); note: test concentration or dose not given here
- T1 sequence: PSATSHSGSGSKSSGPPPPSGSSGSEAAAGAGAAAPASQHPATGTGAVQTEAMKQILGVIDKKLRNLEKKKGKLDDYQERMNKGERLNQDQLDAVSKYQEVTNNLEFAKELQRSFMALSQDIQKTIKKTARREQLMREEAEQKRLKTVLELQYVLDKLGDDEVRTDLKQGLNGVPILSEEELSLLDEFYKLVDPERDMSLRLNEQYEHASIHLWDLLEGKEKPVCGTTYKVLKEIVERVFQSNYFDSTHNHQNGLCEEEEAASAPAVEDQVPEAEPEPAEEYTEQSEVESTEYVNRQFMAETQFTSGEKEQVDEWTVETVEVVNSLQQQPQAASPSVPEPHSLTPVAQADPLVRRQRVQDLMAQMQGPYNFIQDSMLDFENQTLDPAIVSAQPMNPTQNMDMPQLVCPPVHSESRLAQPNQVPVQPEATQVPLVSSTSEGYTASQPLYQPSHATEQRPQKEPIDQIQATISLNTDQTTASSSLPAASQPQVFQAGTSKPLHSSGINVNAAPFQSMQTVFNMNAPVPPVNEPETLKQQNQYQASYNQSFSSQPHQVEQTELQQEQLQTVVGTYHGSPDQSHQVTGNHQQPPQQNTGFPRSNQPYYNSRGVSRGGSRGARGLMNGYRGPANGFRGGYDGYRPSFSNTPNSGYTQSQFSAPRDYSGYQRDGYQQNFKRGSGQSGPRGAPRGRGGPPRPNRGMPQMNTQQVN
- ASSAY_PROCEDURE: cell-based or functional assay
Assignment: determine reported ADCC cytotoxic activity (51Cr release) against HCT-116 for the given binders.

Reported ADCC cytotoxic activity (51Cr release) against HCT-116, binder human-chicken chimeric monoclonal antibody #3 (antibody, V domains shown) VH: AVTLDESGGGLQTPGGGLSLVCKGSGFTFSSFGMFWVRQAPGKGLEFVASISDNGRSTYYGSAVKGRATISRDDGQSTVRLQLNNLRAEDTGTYYCAKNAYVGRGCCFSYSIDAWGHGTEVIVS VL: ALTQPASVSVNPGETVKITCSGGGSSSDAYGWYQQKSPGSAPVTLIYNGSNRPSHIPSRFSGSTSGSTNTLTITGVQVEDEAIYFCGSTDTSTSVGIFGAGTTLTV : ____ ≥ 19%

Which ADCC cytotoxic activity (51Cr release) against HCT-116 reading was recorded for the binder human-chicken chimeric monoclonal antibody #1 (antibody, V domains shown) VH: AVTLDESGGGLQTPGGALSLVCKASGFTFRSHSMFWVRQAPGKGLEYVAGIYGVGRSIRYGSAVKGRATMSRDNGQSTVRLQLNNLRAEDTATYYCAKSGYFSNSRYWDSGAYFIDAWGHGTEVIVS VL: ALTQPASVSANPGETVEITCSGGYSNYGWYQQKSPGSAPVTVIYYNDKRPSDIPSRFSGSKSGSTATLTITGVQAEDEAVYFCGGYDSSTDAGIFGAGTTLTV ? ≥ 19%

Record request: ADCC cytotoxic activity (51Cr release) against HCT-116 value, item human-mouse chimeric comparative monoclonal antibody 7 (antibody, human IgG1, kappa, V domains shown) VH: LQESGAELARPGASVKLSCKASGYTFTSYWMQWVKQRPGQGLEWIGAIYPGDGDTRYTQKFKGKATLTADKSSSTAYMQLSSLASEDSAVYYCARGEYGNYFAYWGQGTTVTVSS VL: TSDASLGERVTITCKASQDINSYLSWFQQKPGKSPKTLIYRANRLVDGVPSRFSGSGSGQDYSLTISSLEYEDMGIYYCLQYDEFPLTFGGGTKLEIKQ < 3%
